Target: Muscarinic acetylcholine receptor M1 (Rattus norvegicus) (UniProt P08482)
Sequence (P08482 whole entry): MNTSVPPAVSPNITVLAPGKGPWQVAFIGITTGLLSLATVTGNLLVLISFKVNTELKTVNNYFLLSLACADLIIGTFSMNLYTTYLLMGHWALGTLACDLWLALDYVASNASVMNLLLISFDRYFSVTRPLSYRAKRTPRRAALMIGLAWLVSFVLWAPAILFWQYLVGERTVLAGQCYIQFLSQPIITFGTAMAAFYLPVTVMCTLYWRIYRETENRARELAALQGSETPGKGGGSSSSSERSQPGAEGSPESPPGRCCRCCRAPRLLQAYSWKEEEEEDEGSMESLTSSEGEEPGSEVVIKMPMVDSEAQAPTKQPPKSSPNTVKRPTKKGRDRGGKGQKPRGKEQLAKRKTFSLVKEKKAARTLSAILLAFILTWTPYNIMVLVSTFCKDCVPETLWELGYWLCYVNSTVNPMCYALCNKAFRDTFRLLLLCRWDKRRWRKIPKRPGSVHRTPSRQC
Assay: Percentage inhibition of binding of [3H]quinuclidinyl benzilate to muscarinic acetylcholine receptor M1 in rat cerebral cortical membranes
Format: cell membranes
Parameters: concentration or dose not given beside the values
Details: Membrane, concentration not given here
property-measured: inhibition (%)

>>> recorded_result("CCSC1CCC2NC1CC2C(=O)OC (configuration not stated)")
7
>>> recorded_result("COC(=O)C1C(O)CC2CCC1N2C (configuration not stated)")
27
>>> recorded_result("CC(=O)OC1CC2CC(=O)CC1N2 (configuration not stated)")
11
>>> recorded_result("CC(=O)O[C@H]1CCC2NC1C[C@@H]2S(=O)(=O)c1ccccc1 (some centres not stated)")
0
>>> recorded_result("CC(=O)OC1CC2CC(=O)CC1N2C (configuration not stated)")
0
>>> recorded_result("COC(=O)[C@H]1CC2NC1CC[C@H]2OC(C)=O (some centres not stated)")
1
>>> recorded_result("CC(=O)O[C@@H]1CCC2NC1C[C@@H]2S(=O)(=O)c1ccccc1 (some centres not stated)")
6

----------
Molecular target: Neuronal acetylcholine receptor; alpha4/beta2 (Rattus norvegicus, UniProt P09483+P12390)
Sequence (P09483 whole entry): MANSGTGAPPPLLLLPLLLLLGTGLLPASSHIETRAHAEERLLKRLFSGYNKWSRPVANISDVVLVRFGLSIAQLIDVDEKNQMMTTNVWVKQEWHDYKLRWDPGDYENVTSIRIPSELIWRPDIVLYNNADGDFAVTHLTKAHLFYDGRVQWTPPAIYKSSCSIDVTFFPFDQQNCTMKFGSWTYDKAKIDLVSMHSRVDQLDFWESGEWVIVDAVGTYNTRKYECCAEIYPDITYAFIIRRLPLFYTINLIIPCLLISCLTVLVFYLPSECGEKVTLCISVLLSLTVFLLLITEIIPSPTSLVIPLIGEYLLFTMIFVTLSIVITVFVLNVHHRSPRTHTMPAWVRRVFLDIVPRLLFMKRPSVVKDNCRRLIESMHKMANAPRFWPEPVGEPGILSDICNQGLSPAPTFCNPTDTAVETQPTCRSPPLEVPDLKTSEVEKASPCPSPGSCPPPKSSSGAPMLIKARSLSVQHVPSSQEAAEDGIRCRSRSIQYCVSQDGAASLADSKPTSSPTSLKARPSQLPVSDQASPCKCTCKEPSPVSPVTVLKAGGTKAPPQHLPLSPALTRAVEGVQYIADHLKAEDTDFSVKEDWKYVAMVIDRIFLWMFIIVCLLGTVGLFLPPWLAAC
Sequence (P12390 whole entry): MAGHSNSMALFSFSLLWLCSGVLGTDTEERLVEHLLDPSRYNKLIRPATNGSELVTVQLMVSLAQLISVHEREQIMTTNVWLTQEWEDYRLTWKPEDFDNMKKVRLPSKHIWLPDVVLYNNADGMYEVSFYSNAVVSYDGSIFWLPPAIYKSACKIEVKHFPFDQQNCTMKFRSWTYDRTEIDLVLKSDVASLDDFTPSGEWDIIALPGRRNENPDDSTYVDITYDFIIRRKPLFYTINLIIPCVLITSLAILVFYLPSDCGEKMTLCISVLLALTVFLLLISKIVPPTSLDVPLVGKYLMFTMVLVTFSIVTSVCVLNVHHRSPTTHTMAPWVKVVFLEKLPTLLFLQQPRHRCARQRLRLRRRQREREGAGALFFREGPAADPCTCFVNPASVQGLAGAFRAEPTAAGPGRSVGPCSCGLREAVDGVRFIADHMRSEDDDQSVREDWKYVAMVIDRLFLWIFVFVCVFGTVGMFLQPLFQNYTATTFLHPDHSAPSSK
Experiment: Inhibition of binding of [3H]nicotine to Nicotinic acetylcholine receptor alpha4-beta2 in rat cerebral cortical membranes
Assay type: cell membranes, Membrane
pKi: −log10 of the molar value.
property-measured: pKi

>>> recorded_result("COC(=O)C1CC2CCCC1N2 (stereo unspecified)")
6.82
>>> recorded_result("CC(=O)O[C@@H]1CCC2CCC1N2 (stereo partly specified)")
4.62
>>> recorded_result("COC(=O)[C@H]1CC2NC1CC[C@H]2O (stereo partly specified)")
4.19
>>> recorded_result("COC(=O)[C@H]1CC2NC1CC[C@@H]2O (stereo partly specified)")
5.40
>>> recorded_result("CC(=O)O[C@H]1CCC2CCC1N2 (stereo partly specified)")
4.49
>>> recorded_result("CC(=O)OC1CC2CCCC1N2C (stereo unspecified)")
5.82

----------
Reported values of Ki for individual entries
Molecular target: Muscarinic acetylcholine receptor M2 (Homo sapiens) (UniProt P08172)
Assay: Inhibition of binding of [3H]quinuclidinyl benzilate to Muscarinic acetylcholine receptor M2 in membranes of transfected CHO cells
property-measured: Ki (nM)

>>> recorded_result("COC(=O)[C@H]1CC2NC1CC[C@@H]2O (stereo not given in full)")
12000
>>> recorded_result("COC(=O)C1CC2CCCC1N2 (stereo not given)")
480
>>> recorded_result("CC(=O)OC1CC2CCCC1N2 (stereo not given)")
2.6
>>> recorded_result("CC(=O)OC(C)C[N+](C)(C)C (stereo not given)")
59
>>> recorded_result("CC(=O)OC1CC2CCCC1N2C (stereo not given)")
2700

----------
Target: Muscarinic acetylcholine receptor M2 (Homo sapiens) (UniProt P08172)
Experiment: Inhibition of binding of 0.1 nM [3H]quinuclidinyl benzilate to Muscarinic acetylcholine receptor M2 in membranes of transfected CHO cells in the presence of 10 uM GTP
Reported values of IC50 for individual entries
property-measured: IC50

>>> recorded_result("CC(=O)OC(C)C[N+](C)(C)C (configuration not stated)")
"5200 nM"
>>> recorded_result("CC(=O)OC1CC2CCCC1N2 (configuration not stated)")
"120 nM"

----------
Target: Muscarinic acetylcholine receptor M3 (Homo sapiens, UniProt P20309)
Sequence (P20309 whole entry, looked up): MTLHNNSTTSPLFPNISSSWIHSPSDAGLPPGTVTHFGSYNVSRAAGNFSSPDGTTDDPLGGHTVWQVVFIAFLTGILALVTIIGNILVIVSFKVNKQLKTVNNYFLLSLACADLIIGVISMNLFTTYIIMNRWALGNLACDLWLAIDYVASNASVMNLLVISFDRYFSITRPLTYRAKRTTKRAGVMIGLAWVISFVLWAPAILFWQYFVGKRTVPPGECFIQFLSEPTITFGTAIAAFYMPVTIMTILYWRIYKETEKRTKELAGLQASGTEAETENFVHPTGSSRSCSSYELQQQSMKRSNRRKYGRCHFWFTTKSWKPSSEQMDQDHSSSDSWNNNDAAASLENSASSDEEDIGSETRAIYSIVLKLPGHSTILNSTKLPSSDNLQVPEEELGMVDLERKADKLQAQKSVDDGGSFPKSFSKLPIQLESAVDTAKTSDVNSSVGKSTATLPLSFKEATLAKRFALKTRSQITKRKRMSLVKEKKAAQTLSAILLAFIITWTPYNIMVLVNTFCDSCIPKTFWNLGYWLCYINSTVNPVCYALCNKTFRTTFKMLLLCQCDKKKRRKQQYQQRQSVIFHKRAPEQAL
Assay: Inhibitory activity against stimulation of [3H]inositol monophosphate accumulation in [3H]inositol-labelled CHO transfected cells mediated by Muscarinic acetylcholine receptor M3
property-measured: EC50 (nM)

>>> recorded_result("CC(=O)OC(C)C[N+](C)(C)C (stereo not drawn) [METHACHOLINE]")
120
>>> recorded_result("C[C@@H]1O[C@H](C[N+](C)(C)C)C[C@H]1O [MUSCARINE]")
130
>>> recorded_result("CC(=O)OC1CC2CCCC1N2 (stereo not drawn)")
3.6
